- assayedTarget: TDP-43 (Homo sapiens, UniProt Q13148 1-414)
- Sequence (Q13148 whole entry): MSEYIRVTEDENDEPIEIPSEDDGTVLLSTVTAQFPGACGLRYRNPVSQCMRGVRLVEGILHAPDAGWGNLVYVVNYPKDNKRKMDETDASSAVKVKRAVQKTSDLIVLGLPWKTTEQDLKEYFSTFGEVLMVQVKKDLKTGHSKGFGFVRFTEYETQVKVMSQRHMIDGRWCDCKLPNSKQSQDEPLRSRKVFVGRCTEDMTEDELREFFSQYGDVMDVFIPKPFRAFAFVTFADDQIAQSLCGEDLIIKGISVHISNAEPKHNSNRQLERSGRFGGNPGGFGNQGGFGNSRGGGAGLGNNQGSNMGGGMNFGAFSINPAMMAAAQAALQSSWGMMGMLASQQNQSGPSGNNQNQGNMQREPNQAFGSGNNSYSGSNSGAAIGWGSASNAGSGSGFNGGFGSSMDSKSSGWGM
- protocolSummary: RNA Bind-n-Seq with designed 260-mer pool; 25 mM Tris-HCl, 150 mM KCl, 3 mM MgCl2, BSA (printed 500 mg/mL), 20 units/mL SUPERase IN; pH not stated; 500 nM RNA pool, 1 h, 4 C; TDP-43 5, 50, 500 nM; high values mean tight binding
- measurementConditions: protein: recombinant; tags: SBP (GST cleaved off with PreScission; pGEX-GST-SBP)
Whole data set: some 9,900 sequences, median “r (bound/input frequency ratio)” near 0.7, cut for the highest 2% near 6.5. The full list was thinned out, with the highest values kept by preference.
// reported binding signal for each item listed
measuredParameter: binding signal

binder: ENSMUSG00000004113.200|Cacna1b|94:98 (ssRNA) RNA: GGGAGUUCUACAGUCCGACGAUCGCUUCGAUAUCCGCAUGCUACCUGAUCUCUGGCUCUGAGCAUCGUGGAUGAGGUACGGCCUCAGGAAGCAUCGGGUGGAUUGGGUGGGAGCUGCUCAGAGCAGCACGGGGGCUACACACUUAGGGACAUUGACAGUGUCCAUCAGCAUGUCAGAGAAGCAGCUGUAGUGCCCGUGUUUCUCCCUGAGUCAUGGGUUCUGAAGAAGCCAGAGCGGCACAAUGCGUGCUUGCAUGAGGCACUUUCAGCCUUUUUAAAUCUGACUCUCAGGGAUGGGAUGCCUCUCUUGCGGUCGCACUAGUGUGGAAUUCUCGGGUGUCAAGG
measuredParameter: binding signal
reportedMeasurement: 0.929 R (bound/input frequency ratio)

binder: ENSMUSG00000031028.188|Tub (ssRNA) RNA: GGGAGUUCUACAGUCCGACGAUCGCUUCGAUAUCCGCAUGCUAUUAAUGGCAGAGUUGAGAACCUCAAAUUCUUUUGUUCCUACUGUUGCCCAGAAACUAGACUCUCUGACCUGCUAGGGUCUAUUCUGCAUGUCCUUUCUCUUCCCAGUUCCAGAGAUGAAACCCCUCCGAGUUAAUGUAUAAGGUUGGAAACCUUUCAGUAGGGAAUCAGGCAGUUCCCUGUUGAAAGUUGUCUGAGUUUUUGCACACCAUUCUGAUCUGAUGUGGCCUGUGCCUGGCUCCUCUAUGAGGACUUCGAGCUGCUCUUGCGGUCGCACUAGUGUGGAAUUCUCGGGUGUCAAGG
measuredParameter: binding signal
reportedMeasurement: 1.12 R (bound/input frequency ratio)
